tested on: ONC-T18; experiment: Fatty acid production antagonist supplementation of ONC-T18 culture, fatty acid profile by FAME GC-FID; assay type: cell-based, Thraustochytrium sp. ONC-T18; conditions: presence of the antagonist; oleic acid without glucose
// reported eicosadienoic acid, lipid as percentage of total fatty acid per item
Provide the reading as a plain figure in %.

The cases that follow already have their eicosadienoic acid, lipid as percentage of total fatty acid on record.
[[record]]
compound = "CCCCCCCC/C=C\\CCCCCCCC(=O)O"
unit = "%"
recordedresult = 0.51

[[record]]
compound = "COc1cc(CNC(=O)CCCC/C=C/C(C)C)ccc1O"
unit = "%"
recordedresult = 0.23

[[record]]
compound = "CNc1cnn(-c2cccc(C(F)(F)F)c2)c(=O)c1Cl"
unit = "%"
recordedresult = 0.13

[[record]]
compound = "C/C=C/C/C=C/CCC(=O)[C@H]1O[C@H]1C(N)=O"
unit = "%"
recordedresult = 0.17

[[record]]
compound = "CCC/C(=N\\OCC)C1=C(O)CC(CC(C)SCC)CC1=O (stereo not drawn)"
unit = "%"
recordedresult = 0.14


Summary for this compound, `Cc1ccccc1C(=O)O` : eicosadienoic acid, lipid as percentage of total fatty acid is 0.79
